- Test system: TRKA
- Construct: gene NTRK1
- Test parameters: concentration: 1 μM, replicates: in singlicate; n = 1;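 further: KINOMEscan kinase panel screen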
Measurement kind: %Inh (%)
All answers are understood in %, so give the number only.

>>> recorded_number("Cc1ccc(NC(=O)c2ccc(Cl)cc2)cc1-c1ccc(C(=O)Nc2ccncc2)cc1 [GSK1398467]")
0
>>> recorded_number("CN1c2ccc(-c3ccc(C(N)=O)cc3)cc2-c2[nH]ncc2S1(=O)=O")
0
>>> recorded_number("COC(=O)c1cccc(NC(=O)NC2CCN(c3ccnc(Nc4ccc(OC)cc4)n3)C2)c1 (stereo not shown) [GSK1379746]")
34

For the compound shown here, Cn1cncc1C(=O)NC1CCN(c2ccnc(Nc3ccc(F)cc3)n2)C1 (stereo not shown) [GSK1379717] , give the reported %Inh. 0

Which %Inh reading was recorded for the compound COc1ccc(Nc2nccc(NCCNC(=O)Nc3cc(C)ccc3C)n2)cc1 [GSK1379899] ? 3

Which measured %Inh value corresponds to COc1ccc(Nc2nccc(N3CCC(NC(=O)c4cc5ccccc5s4)C3)n2)cc1 (stereo not shown) [GSK1379738] ? 60

I'd like to know its %Inh. The compound in question is Cc1c(Cn2c3ccccc3n3c(=O)cc(N4CCOCC4)nc23)cccc1C(F)(F)F [GSK2306394] 0

---

- System: CAMK1
- Test parameters: concentration: 1 μM, replicates: in singlicate; n = 1
%Inh overview
Please state the figure in %; there is no need to write the unit.

>>> recorded_number("COc1cccc(NC(=O)Nc2ccc(C)c(-c3ccc(C(=O)Nc4ccncc4)cc3)c2)c1")
21

# query: %Inh of entry "CS(=O)(=O)CCNCc1nc(-c2ccc3ncnc(Nc4ccc(OCc5ccccc5)c(Cl)c4)c3c2)cs1.Cl" 9

State the recorded %Inh for this entry: "O=C(Nc1n[nH]c2nc(-c3cccs3)c(Br)cc12)C1CCCC1" 18

---

- Test system: JNK1
- Construct: gene MAPK8
- Test parameters: concentration: 1 μM, replicates: in singlicate; n = 1
This section presents molecules with their documented %Inh values.
Entry rule: numbers only, all in %.

>>> recorded_number("FC(F)(F)c1ccccc1-c1cc(-c2c[nH]nc2-c2ccccn2)ccn1")
30
>>> recorded_number("CCn1c(-c2c(N)noc2C)nc2cnccc21")
15

Quick one: %Inh for "Fc1ccc(-c2nn3cccc(F)c3c2-c2ccncc2)cc1" ? 61

Endpoint output: %Inh of "CN1c2ccc(-c3ccc(C(N)=O)cc3)cc2-c2[nH]ncc2S1(=O)=O" . Value? 0

Reported %Inh for Cn1cncc1C(=O)NC1CCN(c2ccnc(Nc3ccc(F)cc3)n2)C1 (stereo not shown) : what is it? 29

%Inh for "COc1ccc(CSc2nnc(-c3ccc4nccn4c3)o2)cc1C(F)(F)F" ? 0

---

- System: IKK-alpha
- Construct: gene CHUK
- Test parameters: concentration: 1 μM, replicates: in singlicate; n = 1
Measurement kind: %Inh (%)
# number only, unit % dropped from output

Solved entries (count: 3):
>>> recorded_number("NS(=O)(=O)c1cccc(N/C=C2\\C(=O)Nc3ccc(S(=O)(=O)Cc4c(Cl)cccc4Cl)cc32)c1")
0
>>> recorded_number("CC(C)c1ccc(O)cc1Nc1ccnc2ccc(C(F)(F)F)cc12")
0
>>> recorded_number("Fc1ccc(-c2nc3n(c2-c2ccncc2)CCS3)cc1")
0

Identify the measured %Inh of "CSc1ccc(-c2nc3n(c2-c2ccncc2)CCC3)cc1" for IKK-alpha. 5

Short answer please: %Inh, IKK-alpha, entry "COc1ccc(CSc2nnc(-c3ccc4ncsc4c3)o2)cc1C(F)(F)F" 0

Return %Inh measured with IKK-alpha given this compound: "CC(C)c1cc(-c2ccc3c(N)n[nH]c3c2)nc(N)n1" 0
